Taken from paper PMC13114161.

Run description: Plasma stability
Format: in vitro ADME, human
Study conditions: human, read-out: Plasma stability t1/2
Assay metric: half-life

**Q:** Answer with reported half-life of NCC(F)C[C@@H](N)CNC(=O)c1cc2ccc(-c3ccc(F)cc3)cc2[nH]1 (stereo partly shown) [TXA11114]
**A:** > 2 h

---

Run description: in vitro
Type: cell-based
Study conditions: human
Assay metric: IC50 at 24 h

**Q:** Consider the compound NCC(F)C[C@@H](N)CNC(=O)c1cc2ccc(-c3ccc(F)cc3)cc2[nH]1 (stereo partly shown) [TXA11114] and give its recorded IC50 at 24 h.
**A:** > 20 µM

---

Measured on: UniProtKB P11712
Sequence (P11712 whole entry): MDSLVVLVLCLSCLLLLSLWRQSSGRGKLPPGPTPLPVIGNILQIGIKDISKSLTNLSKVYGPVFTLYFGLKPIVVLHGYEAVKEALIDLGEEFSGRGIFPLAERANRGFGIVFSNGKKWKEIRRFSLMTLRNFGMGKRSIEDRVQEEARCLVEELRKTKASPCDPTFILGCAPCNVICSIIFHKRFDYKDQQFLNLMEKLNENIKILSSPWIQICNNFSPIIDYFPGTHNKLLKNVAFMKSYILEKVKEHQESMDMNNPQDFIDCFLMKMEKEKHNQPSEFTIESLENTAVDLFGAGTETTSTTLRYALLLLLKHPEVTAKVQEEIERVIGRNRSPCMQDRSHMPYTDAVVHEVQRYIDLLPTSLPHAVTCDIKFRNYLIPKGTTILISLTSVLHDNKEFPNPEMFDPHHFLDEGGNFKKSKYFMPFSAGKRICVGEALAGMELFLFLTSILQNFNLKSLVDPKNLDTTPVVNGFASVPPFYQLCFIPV
pIC50: −log10 of the molar value.
Assay metric: pIC50

**Q:** Given NCC(F)C[C@@H](N)CNC(=O)c1cc2ccc(-c3ccc(F)cc3)cc2[nH]1 (stereo partly shown) , respond with its pIC50.
**A:** < 4.00

---

Run description: Microsomal stability
Format: in vitro ADME, human
Study conditions: pH 7.4; human and rat liver microsomes; read-out: Microsomal stability half-life
Assay metric: half-life at 1 µM

**Q:** Write down half-life at 1 µM measured for item NCC(F)C[C@@H](N)CNC(=O)c1cc2ccc(-c3ccc(F)cc3)cc2[nH]1 (stereo partly shown) [TXA11114]
**A:** > 60 min

---

System: P. aeruginosa ATCC 27853
Run description: MIC and levofloxacin potentiation (broth microdilution)
Format: cell-based, Pseudomonas aeruginosa
Study conditions: levofloxacin MIC with EPI at […]; ATCC 27853
Assay metric: LVX MIC (+EPI) (µg/mL)
Answer format: numeric, µg/mL implied, no suffix.

Use the examples below as a reference point.
NC[C@@H]1CN[C@H](CNC(=O)c2cc3ccc(-c4ccc(F)cc4)cc3[nH]2)C1 = 0.063
NCCC(F)[C@@H](N)CNC(=O)c1cc2ccc(-c3ccc(F)cc3)cc2[nH]1 (some centres unmarked) = 1
NCC(F)(F)C[C@@H](N)CNC(=O)c1cc2ccc(-c3ccc(F)cc3)cc2[nH]1 = 1
NCC(F)C[C@@H](N)CNC(=O)c1cc2ccc(-c3ccc(F)cc3)cc2[nH]1 (some centres unmarked) = 0.125

**Q:** Fill in LVX MIC (+EPI) for record NCCC[C@@H](N)CNC(=O)c1cc2ccc(-c3ccc(F)cc3)cc2[nH]1
**A:** 0.125

---

Run description: in vivo
Study conditions: female, CD-1, mouse, 30 mg/kg, Plasma AUC 0-t
Assay metric: AUC(0-t) (ng·h/mL)
# value in ng·h/mL; strip the unit string

NCC(F)C[C@@H](N)CNC(=O)c1cc2ccc(-c3ccc(F)cc3)cc2[nH]1 (some centres unmarked) = 30700

# input for lookup
**Q:** Look up and state reported AUC(0-t) for C[C@H]1COc2c(N3CCN(C)CC3)c(F)cc3c(=O)c(C(=O)O)cn1c23
**A:** 32900

---

Run description: Plasma protein binding (equilibrium dialysis)
Type: in vitro ADME
Study conditions: dog
Assay metric: fraction unbound
# output: bare number, no unit

**Q:** # return recorded fraction unbound for entry NCC(F)C[C@@H](N)CNC(=O)c1cc2ccc(-c3ccc(F)cc3)cc2[nH]1 (stereo partly shown)
**A:** 0.011

---

Run description: Plasma stability
Assay type: in vitro ADME
Study conditions: dog, read-out: Plasma stability t1/2
Assay metric: half-life

**Q:** Identify half-life associated with the compound NCC(F)C[C@@H](N)CNC(=O)c1cc2ccc(-c3ccc(F)cc3)cc2[nH]1 (stereo partly shown)
**A:** > 2 h
